# Study system: recombinant 17bHSD13 (N2-K300) (Homo sapiens (Human), UniProt Q7Z5P4)
# Sequence (Q7Z5P4 2-300): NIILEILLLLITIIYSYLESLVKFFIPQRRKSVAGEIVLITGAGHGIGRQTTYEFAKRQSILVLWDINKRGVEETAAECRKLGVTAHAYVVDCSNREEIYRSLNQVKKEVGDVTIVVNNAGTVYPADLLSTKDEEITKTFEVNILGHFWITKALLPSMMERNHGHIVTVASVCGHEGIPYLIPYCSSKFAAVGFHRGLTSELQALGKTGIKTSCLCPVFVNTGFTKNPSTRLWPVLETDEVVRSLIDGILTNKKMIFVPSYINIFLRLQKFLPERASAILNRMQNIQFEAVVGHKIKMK
# Test: In Vitro 17bHSD13 Enzyme Assay
# Condition label: 80 nM 17bHSD13, 0.5 mM NAD, 20 μM Estradiol, 2.5 h; estradiol to estrone by LC-MS/MS
Measurement label: pIC50
Quick note: pIC50 means taking -log10 of the concentration in moles per liter.

{"columns": ["Compound", "Study system", "pIC50"],
 "data": [
  ["N#Cc1c(C(=O)N2CCC(n3cc(-c4ccc(F)cc4)[nH]c3=O)CC2)noc1-c1cc(F)c(F)c(O)c1F", "recombinant 17bHSD13 (N2-K300) (Homo sapiens (Human), UniProt Q7Z5P4)", 6.70]
]}

Quick check: pIC50 of CC1(C)CN(C(=O)c2noc(-c3cc(F)c(F)c(O)c3F)n2)CC(C)(C)O1 ?
6.80

Quick check: pIC50 of C[C@H]1CN(C(=O)c2noc(-c3cc(F)c(F)c(O)c3F)n2)C[C@H](C)O1 ?
6.41

Quick check: pIC50 of N#Cc1cccc2c1CCN(C(=O)c1noc(-c3c(F)c(O)c(F)c(F)c3Br)n1)C2 ?
7.21

Quick check: pIC50 of C[C@@H]1COC[C@H](C)N1C(=O)c1noc(-c2cc(F)c(F)c(O)c2F)n1 ?
5.99

Quick check: pIC50 of O=C(c1noc(-c2cc(F)c(F)c(O)c2F)n1)N1CCO[C@@H](CF)C1 ?
5.78

Quick check: pIC50 of O=C(c1noc(-c2cc(F)c(F)c(O)c2F)n1)N1CCC(OCc2ccccc2)C1 (centres unmarked) ?
6.91

Quick check: pIC50 of CC[C@H]1CN(C(=O)c2noc(-c3cc(F)c(F)c(O)c3F)n2)CC(=O)N1 ?
6.24

====

// reported pIC50 for each item listed
# Study system: recombinant 17bHSD13 (N2-K300) (Homo sapiens (Human), UniProt Q7Z5P4)
# Test: In Vitro 17bHSD13 Enzyme Assay
# Condition label: 80 nM 17bHSD13, 0.5 mM NAD, 20 μM Estradiol, 2.5 h; estradiol to estrone by LC-MS/MS
Quick note: pIC50 means taking -log10 of the concentration in moles per liter.

Solved cases (5 shown):
{"columns": ["Compound", "pIC50"],
 "data": [
  ["O=C(c1noc(-c2cc(F)c(F)c(O)c2F)n1)N1CCSCC1 [Example 40]", 6.15],
  ["O=C(c1noc(-c2cc(F)c(F)c(O)c2F)n1)N1CCC2(C1)OCc1ccccc12 (centres unmarked) [Example 102]", 7.28],
  ["O=C(c1noc(-c2cc(F)c(F)c(O)c2F)n1)N1CC[C@H](Oc2ccccc2)C1 [Example 93]", 7.20],
  ["C[C@@H]1CCN(C(=O)c2noc(-c3cc(F)c(F)c(O)c3F)n2)CCO1 [Example 51]", 5.77],
  ["C[C@@H]1CN(C(=O)c2nc(-c3cc(F)c(F)c(O)c3F)no2)C[C@H](C)O1 [Example 110]", 6.00]
]}

The record that follows has no pIC50 shown yet.
Quick check: pIC50 of O=C(c1noc(-c2ccc(F)c(O)c2)n1)N1CC[C@H](c2ccccc2)C1 [Example 11] ?
7.16

====

# Test system: human hepatocytes
# Test: Assay A: Metabolic Stability in Human Hepatocytes
# Assay type: in vitro ADME
# Condition label: cryopreserved human hepatocytes, 10^6 viable cells/mL, 1 μM compound, 37° C.
// reported Assay A: Human Heps Met Clint GMean CLint (μl/min/1E6) for each item listed
Answer format reminder: number followed by unit.

{"columns": ["Smiles structure", "Observed value"],
 "data": [
  ["C[C@@H]1CC[C@H](C)N1C(=O)c1noc(-c2cc(F)c(F)c(O)c2F)n1", "2.1 μl/min/1E6"]
]}

Quick check: Assay A: Human Heps Met Clint GMean CLint (μl/min/1E6) of N#Cc1c(C(=O)N2CC[C@@H](c3ccc(Cl)cc3)C2)noc1-c1cc(F)c(F)c(O)c1F ?
13.3 μl/min/1E6

Quick check: Assay A: Human Heps Met Clint GMean CLint (μl/min/1E6) of O=C(c1noc(-c2cc(F)c(F)c(O)c2F)n1)N1CCO[C@H]2CCC[C@@H]21 ?
6.2 μl/min/1E6

====

# Study system: recombinant 17bHSD13 (N2-K300) (Homo sapiens (Human), UniProt Q7Z5P4)
# Test: In Vitro 17bHSD13 Enzyme Assay
# Condition label: 80 nM 17bHSD13, 0.5 mM NAD, 20 μM Estradiol, 2.5 h; estradiol to estrone by LC-MS/MS
// reported IC50 for each item listed
Report the figure in µM without appending any unit label.

Solved cases (8 shown):
{"columns": ["Compound", "Study system", "Measurement label", "Observed value"],
 "data": [
  ["COc1ccc(C(C)N(C)C(=O)c2noc(-c3cc(F)c(F)c(O)c3F)n2)cc1 (centres unmarked) [Example 78]", "recombinant 17bHSD13 (N2-K300) (Homo sapiens (Human), UniProt Q7Z5P4)", "IC50", 0.127],
  ["COc1ccc(OC2CCN(C(=O)c3noc(-c4cc(F)c(F)c(O)c4F)c3C#N)CC2)nc1 [Example 25]", "recombinant 17bHSD13 (N2-K300) (Homo sapiens (Human), UniProt Q7Z5P4)", "IC50", 0.288],
  ["O=C(c1noc(-c2cc(F)c(F)c(O)c2F)n1)N1CCOCC1 [Example 39]", "recombinant 17bHSD13 (N2-K300) (Homo sapiens (Human), UniProt Q7Z5P4)", "IC50", 1.75],
  ["O=C(c1noc(-c2cc(F)c(F)c(O)c2F)n1)N1CCOC2(CCCC2)C1 [Example 45]", "recombinant 17bHSD13 (N2-K300) (Homo sapiens (Human), UniProt Q7Z5P4)", "IC50", 0.466],
  ["C[C@@H]1CN(C(=O)c2noc(-c3cc(F)c(F)c(O)c3F)c2C#N)C[C@H](C)O1 [Example 22]", "recombinant 17bHSD13 (N2-K300) (Homo sapiens (Human), UniProt Q7Z5P4)", "IC50", 0.532],
  ["O=C(c1noc(-c2cc(F)c(F)c(O)c2F)n1)N1CCOC2(CCOCC2)C1 [Example 53]", "recombinant 17bHSD13 (N2-K300) (Homo sapiens (Human), UniProt Q7Z5P4)", "IC50", 2.78],
  ["N#Cc1c(C(=O)N2CCN(c3ccc4nnc(C(F)(F)F)n4n3)CC2)noc1-c1cc(F)c(F)c(O)c1F [Example 17]", "recombinant 17bHSD13 (N2-K300) (Homo sapiens (Human), UniProt Q7Z5P4)", "IC50", 0.525],
  ["C[C@@H]1CN(C(=O)c2cnc(-c3cc(F)c(F)c(O)c3F)s2)C[C@H](C)O1 [Example 120]", "recombinant 17bHSD13 (N2-K300) (Homo sapiens (Human), UniProt Q7Z5P4)", "IC50", 0.044]
]}

Which measured IC50 belongs to O=C(c1noc(-c2cc(F)c(F)c(O)c2F)n1)N1CC=C(c2ccccc2)CC1 [Example 62] , tested on recombinant 17bHSD13 (N2-K300) (Homo sapiens (Human), UniProt Q7Z5P4)?
0.046

Which measured IC50 belongs to O=C(c1noc(-c2cc(F)c(F)c(O)c2F)n1)N1CC2CCC(C1)C2(F)F [Example 43] , tested on recombinant 17bHSD13 (N2-K300) (Homo sapiens (Human), UniProt Q7Z5P4)?
0.339

Which measured IC50 belongs to O=C(c1noc(-c2cc(F)c(F)c(O)c2F)n1)N1CCN(c2ccccn2)CC1 [Example 58] , tested on recombinant 17bHSD13 (N2-K300) (Homo sapiens (Human), UniProt Q7Z5P4)?
0.103

Which measured IC50 belongs to O=C(c1noc(-c2cc(F)c(F)c(O)c2F)n1)N1CCO[C@H](C(F)(F)F)C1 [Example 46] , tested on recombinant 17bHSD13 (N2-K300) (Homo sapiens (Human), UniProt Q7Z5P4)?
0.517

Which measured IC50 belongs to O=C(c1noc(-c2cc(F)c(F)c(O)c2F)n1)N1CCOC2(CC2)C1 [Example 118] , tested on recombinant 17bHSD13 (N2-K300) (Homo sapiens (Human), UniProt Q7Z5P4)?
1.08

Which measured IC50 belongs to COc1cccc(N2CCN(C(=O)c3noc(-c4cc(F)c(F)c(O)c4F)c3C#N)CC2)c1 [Example 16] , tested on recombinant 17bHSD13 (N2-K300) (Homo sapiens (Human), UniProt Q7Z5P4)?
0.137

Which measured IC50 belongs to CC(C)c1noc(C2=CCN(C(=O)c3noc(-c4cc(F)c(F)c(O)c4F)n3)CC2)n1 [Example 107] , tested on recombinant 17bHSD13 (N2-K300) (Homo sapiens (Human), UniProt Q7Z5P4)?
0.143

Which measured IC50 belongs to O=C(c1noc(-c2cc(F)c(F)c(O)c2F)n1)N1CCCC(OCc2ccccc2)C1 (centres unmarked) [Example 94] , tested on recombinant 17bHSD13 (N2-K300) (Homo sapiens (Human), UniProt Q7Z5P4)?
0.048

Which measured IC50 belongs to O=C(c1noc(-c2cc(F)c(F)c(O)c2F)n1)N1CCO[C@@H]2CCC[C@@H]21 [Example 113] , tested on recombinant 17bHSD13 (N2-K300) (Homo sapiens (Human), UniProt Q7Z5P4)?
0.211
